Sourced from patent US20230167088A1

# maps each entry to its Post-emergence action against AMARE in %
Test system: AMARE
Assay: Herbicidal post-emergence action 1a (greenhouse pots, visual rating)
Type: in vivo, Amaranthus retroflexus
Conditions: dosage 320 g/ha, visual rating about 3 weeks after treatment

[
  {
    "MOLECULE": "COC(=O)C(C)Oc1nn(-c2cnccn2)c(-c2ccc(F)c(F)c2)c1C#N (racemic) [Example I-22]",
    "TARGET_OF_ASSAY": "AMARE",
    "Post-emergence action against AMARE in %, %": 90
  },
  {
    "MOLECULE": "C[C@H](Oc1nn(-c2cnccn2)c(-c2cncc(F)c2)c1Br)C(=O)O [Example I-37]",
    "TARGET_OF_ASSAY": "AMARE",
    "Post-emergence action against AMARE in %, %": 90
  },
  {
    "MOLECULE": "COC(=O)C(C)Oc1nn(-c2cnccn2)c(-c2ccc(F)c(F)c2)c1Br (racemic) [Example I-16]",
    "TARGET_OF_ASSAY": "AMARE",
    "Post-emergence action against AMARE in %, %": 90
  },
  {
    "MOLECULE": "COC(=O)C(C)Oc1nn(-c2cnccn2)c(-c2ccnc(F)c2)c1Br (racemic) [Example I-10]",
    "TARGET_OF_ASSAY": "AMARE",
    "Post-emergence action against AMARE in %, %": 80
  }
]
